Test: Antiproliferative activity against human BGC823 cells after 48 hrs by MTT assay
Assay type: functional, cell-based
Settings: BGC-823, 48 h
Provide the reported pIC50 of each item.
Give bare numbers, as −log10 of the molar value.

C[C@@H](O)[C@H](NC(=O)OC(C)(C)C)C(=O)O[C@H]1CC[C@]2(C)[C@H]3C[C@@H](O)[C@@H]4[C@@H]([C@](C)(O)CCCC(C)(C)O)CC[C@@]4(C)[C@]3(C)CC[C@H]2C1(C)C	4.66

For each listed entry, give its pIC50.
1. CC(C)(O)CCC[C@@](C)(O)[C@H]1CC[C@]2(C)[C@@H]1[C@H](O)C[C@@H]1[C@@]3(C)CC[C@H](OC(=O)[C@@H](N)CCC(=O)O)C(C)(C)[C@@H]3CC[C@]12C
2. C[C@H](NC(=O)OC(C)(C)C)C(=O)O[C@H]1CC[C@]2(C)[C@H]3C[C@@H](OC(=O)[C@H](C)NC(=O)OC(C)(C)C)[C@@H]4[C@@H]([C@](C)(O)CCCC(C)(C)O)CC[C@@]4(C)[C@]3(C)CC[C@H]2C1(C)C
3. CC(C)C[C@H](N)C(=O)O[C@H]1CC[C@]2(C)[C@H]3C[C@@H](O)[C@@H]4[C@@H]([C@](C)(O)CCCC(C)(C)O)CC[C@@]4(C)[C@]3(C)CC[C@H]2C1(C)C

OUT:
1: 5.16; 2: 4.09; 3: 5.05
